B1: HDV Ribozyme (parent)
chain: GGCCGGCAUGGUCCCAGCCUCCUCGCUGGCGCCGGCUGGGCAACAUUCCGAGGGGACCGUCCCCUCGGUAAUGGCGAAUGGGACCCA

- Variants of: B1
- test.name: self-cleavage, relative activity (ratio to wild type); higher = more cleavage; co-transcriptional
experimental.endpoint: self-cleavage
Just the number, please.

Below, each entry is followed by its recorded self-cleavage result.
input.sequence | self-cleavage
GGCCGGCAUGGUCCCAGCCUCCUCGCUGGCGCCGGCUGGGCAACAUUCCGAGGGGACCGUCCCCACGGUAAUGACGAAUGGGACCCA | 0.489
GGCCGGCAUGGUCCCUGCCUCCUCGCUGGCGCCGGCUGGGCAACAUUCCGAGGGGACCGUGCCCUCGGUAAUGGCGAAUGGGACCCA | 0.712

Data request: What does the data say about its self-cleavage? Entry: GGCCGGCAUGGUCCCAGCCUCCUCGCUGGCGCCGGCUGCGCAACAUUCCGAGGGGACCGUCCCCUCGGUAAUGUCGAAUGGGACCCA
Data returned: 0.251

Data request: Moving on to the next variant: GGCCGGCAUGGUCACAGCCUCCUCGCUGGCGCCGGCUGGGCAACAUUCCGAGGGGACCGUUCCCUCGGUAAUGGCGAAUGGGACCCA
Data returned: 0.656

Data request: Moving on to the next variant: GGCCGGCAUGGUCCCAGCCUCCUCGCUGGCGCCGGCUGGGCAACAUUCCCAGGGGACCGUCCCCUCGGUAAUGGCGAAGGGGACCCA
Data returned: 0.723

Data request: Moving on to the next variant: GGCCGGCAUGGUCCCAGCCUCCUCGCUGGAGCGGGCUGGGCAACAUUCCGAGGGGACCGUCCCCUCGGUAAUGGCGAAUGGGACCCA
Data returned: 0.128
